- experimental-protocol: self-splicing fitness, log relative to wild type (ln ratio); higher = more splicing; Tetrahymena group I intron in knt gene, E. coli kanamycin selection, DiMSum; sequences stand for … in CUCUCU…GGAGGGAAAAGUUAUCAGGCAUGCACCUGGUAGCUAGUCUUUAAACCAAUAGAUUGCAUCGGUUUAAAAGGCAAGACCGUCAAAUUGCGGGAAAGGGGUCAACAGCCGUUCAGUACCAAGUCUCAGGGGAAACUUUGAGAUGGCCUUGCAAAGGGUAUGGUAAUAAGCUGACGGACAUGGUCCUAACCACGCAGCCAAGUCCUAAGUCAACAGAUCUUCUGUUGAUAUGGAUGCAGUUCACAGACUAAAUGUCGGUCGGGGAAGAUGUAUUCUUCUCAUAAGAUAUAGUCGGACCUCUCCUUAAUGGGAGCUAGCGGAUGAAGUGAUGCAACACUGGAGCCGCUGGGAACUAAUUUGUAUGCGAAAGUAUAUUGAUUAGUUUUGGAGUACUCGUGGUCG;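 further: selection with 25 µg/mL kanamycin versus none on LB agar overnight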
- condition-summary: 30 °C
Label Y for high-side self-splicing fitness (ln) (at or above -2) and N for low-side self-splicing fitness (ln) (below it).

[
  {
    "seq-text": "CAAAAGCAAUAUUACGUGGG",
    "assigned-label": "N"
  },
  {
    "seq-text": "UAUGAGCAAUAUUACGUUGG",
    "assigned-label": "N"
  },
  {
    "seq-text": "CAAAAGCAAUAUUACGGAGG",
    "assigned-label": "Y"
  },
  {
    "seq-text": "CUCCAGCAAUAUUACGCUGA",
    "assigned-label": "N"
  },
  {
    "seq-text": "ACGCAGCAAUAUUACGCCCA",
    "assigned-label": "Y"
  },
  {
    "seq-text": "CGGUAGCAAUAUUACGCGGU",
    "assigned-label": "N"
  },
  {
    "seq-text": "AUCUAGCAAUAUUACGUUAA",
    "assigned-label": "Y"
  }
]

---

- experimental-protocol: self-splicing fitness, log relative to wild type (ln ratio); higher = more splicing; Tetrahymena group I intron in knt gene, E. coli kanamycin selection, DiMSum; sequences stand for … in CUCUCU…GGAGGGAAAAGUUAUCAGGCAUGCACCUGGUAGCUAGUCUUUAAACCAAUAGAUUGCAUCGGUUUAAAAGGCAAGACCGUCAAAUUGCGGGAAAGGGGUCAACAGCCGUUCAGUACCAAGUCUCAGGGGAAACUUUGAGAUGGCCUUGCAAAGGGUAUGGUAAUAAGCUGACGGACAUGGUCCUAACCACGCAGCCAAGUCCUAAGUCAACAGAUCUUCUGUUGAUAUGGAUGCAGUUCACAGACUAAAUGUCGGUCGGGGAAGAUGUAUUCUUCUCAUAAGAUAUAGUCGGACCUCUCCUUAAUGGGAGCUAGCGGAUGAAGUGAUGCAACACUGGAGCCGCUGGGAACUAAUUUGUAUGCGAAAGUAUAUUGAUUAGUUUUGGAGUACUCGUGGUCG
- condition-summary: 30 °C
Label Satisfied for high-side self-splicing fitness (ln) (at or above -2) and Not satisfied for low-side self-splicing fitness (ln) (below it).

[
  {
    "seq-text": "CACAAGCAAUAUUACGGUAC",
    "assigned-label": "Not satisfied"
  },
  {
    "seq-text": "CCUGAGCAAUAUUACGAAUC",
    "assigned-label": "Not satisfied"
  },
  {
    "seq-text": "CACAAGCAAUAUUACGUCGA",
    "assigned-label": "Not satisfied"
  },
  {
    "seq-text": "UUGGAGCAAUAUUACGUUGA",
    "assigned-label": "Not satisfied"
  },
  {
    "seq-text": "AAAAAGCAAUAUUACGUUUU",
    "assigned-label": "Not satisfied"
  },
  {
    "seq-text": "UCUAAGCAAUAUUACGUGAG",
    "assigned-label": "Satisfied"
  },
  {
    "seq-text": "CUUAAGCAAUAUUACGCGUC",
    "assigned-label": "Not satisfied"
  },
  {
    "seq-text": "UCCGAGCAAUAUUACGGAGC",
    "assigned-label": "Not satisfied"
  },
  {
    "seq-text": "CAUUAGCAAUAUUACGAAAA",
    "assigned-label": "Not satisfied"
  },
  {
    "seq-text": "UAUCAGCAAUAUUACGUUCG",
    "assigned-label": "Satisfied"
  },
  {
    "seq-text": "AUAUAGCAAUAUUACGAUAA",
    "assigned-label": "Satisfied"
  },
  {
    "seq-text": "UGGAAGCAAUAUUACGACAG",
    "assigned-label": "Satisfied"
  },
  {
    "seq-text": "GGUUAGCAAUAUUACGAGUC",
    "assigned-label": "Not satisfied"
  },
  {
    "seq-text": "UCAUAGCAAUAUUACGCGCU",
    "assigned-label": "Not satisfied"
  },
  {
    "seq-text": "UAUCAGCAAUAUUACGUUCU",
    "assigned-label": "Not satisfied"
  }
]
